SYSTEM_TESTED: MLKL (Homo sapiens)
Sequence (Q8NB16 whole entry): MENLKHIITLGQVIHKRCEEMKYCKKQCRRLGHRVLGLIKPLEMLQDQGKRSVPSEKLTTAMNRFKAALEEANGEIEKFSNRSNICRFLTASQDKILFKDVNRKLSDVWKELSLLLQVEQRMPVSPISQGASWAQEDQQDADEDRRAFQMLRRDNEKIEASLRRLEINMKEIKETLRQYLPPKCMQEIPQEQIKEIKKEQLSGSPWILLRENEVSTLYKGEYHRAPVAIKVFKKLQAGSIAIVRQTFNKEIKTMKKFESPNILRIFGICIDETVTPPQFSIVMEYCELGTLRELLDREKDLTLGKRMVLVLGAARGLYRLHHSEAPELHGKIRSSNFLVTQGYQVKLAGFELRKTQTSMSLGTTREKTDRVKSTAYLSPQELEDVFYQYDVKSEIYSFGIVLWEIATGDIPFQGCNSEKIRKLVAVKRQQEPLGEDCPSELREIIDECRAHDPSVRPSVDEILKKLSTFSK
PROCEDURE_DETAILS: MLKL degradation assay in HepG2 cell line (western blot)
Type: cell-based
Design: endogenous in cells; host or cells: HepG2 or HaCaT
CONDITION_PARAMETERS: compound 10 μM; cell line not given
ASSAY_METRIC: Degradation assay (Degradation %) 10 μM
Express the result in % but write the number alone.

Example results:
Task: In one line, give reported Degradation assay (Degradation %) 10 μM of the entry Nc1ncc(-c2cnn(C3CCN(CCc4cn(C5CCN(C(=O)CNc6ccc7c(c6)C(=O)N(C6CCC(=O)NC6=O)C7=O)CC5)nn4)CC3)c2)nc1C(=O)O[C@@H](C(=O)Nc1ccc(F)cc1)c1ccccc1 (some centres unmarked) .
Result: 52.12

Task: In one line, give reported Degradation assay (Degradation %) 10 μM of the entry Nc1ncc(-c2cnn(C3CCN(CCCN4CCN(C(=O)COc5cccc6c5C(=O)N(C5CCC(=O)NC5=O)C6=O)CC4)CC3)c2)nc1C(=O)OC(C(=O)Nc1ccc(F)cc1)c1ccccc1 (centres unmarked) .
Result: 54.82

Task: In one line, give reported Degradation assay (Degradation %) 10 μM of the entry Nc1ncc(-c2cnn(C3CCN(C(=O)C4CCN(c5cccc6c5C(=O)N(C5CCC(=O)NC5=O)C6=O)CC4)CC3)c2)nc1C(=O)OC(C(=O)Nc1ccc(F)cc1)c1ccccc1 (centres unmarked) .
Result: 15.86

Task: In one line, give reported Degradation assay (Degradation %) 10 μM of the entry Nc1ncc(-c2cnn(C3CCN(CCC4CCN(c5ccc6nnn(C7CCC(=O)NC7=O)c(=O)c6c5)CC4)CC3)c2)nc1C(=O)OC(C(=O)Nc1ccc(F)cc1)c1ccccc1 (centres unmarked) .
Result: 57.99

Let us move to another entry and its Degradation assay (Degradation %) 10 μM.
Task: In one line, give reported Degradation assay (Degradation %) 10 μM of the entry Nc1ncc(-c2cnn(C3CCN(C(=O)COCCOCCNC(=O)CNc4cccc5c4C(=O)N(C4CCC(=O)NC4=O)C5=O)CC3)c2)nc1C(=O)O[C@@H](C(=O)Nc1ccc(F)cc1)c1ccccc1 (some centres unmarked) .
Result: 4.57
